Biological target: angiotensin II AT1 receptor
Assay: Assay A: Angiotensin II binding activity (125I-AII displacement, rat uterine membrane preparation)
MEASURED_ATTRIBUTE: pIC50
Note on units: pIC50 is unitless, being -log10 of a concentration expressed in mol/L.

// lookup pIC50 for `CCCCc1nc(CCCO)n(Cc2ccc(-c3ccccc3-c3nnn[nH]3)cc2)n1`
6.96

// lookup pIC50 for `CCCCCn1nc(CCCC)nc1Cc1ccc(-c2ccccc2-c2nnn[nH]2)nc1`
7.07

// lookup pIC50 for `CCCCc1cn(-c2c(OC)cccc2OC)c(=O)n1Cc1ccc(-c2ccccc2-c2nnn[nH]2)cc1`
8.01

// lookup pIC50 for `CCCc1cn(CCC)c(=O)n1Cc1ccc(-c2ccccc2-c2nnn[nH]2)cc1`
6.89

// lookup pIC50 for `CCCCc1nn(C(=O)CCC)c(=O)n1Cc1ccc(-c2ccccc2-c2nn[nH]n2)cc1`
7.18

// lookup pIC50 for `CCCCc1cn(-c2ccccc2C(C)C)c(=O)n1Cc1ccc(-c2ccccc2-c2nnn[nH]2)nc1`
7.85

// lookup pIC50 for `CCCCn1nc(-c2ccccc2Cl)nc1Cc1ccc(-c2ccccc2-c2nnn[nH]2)nc1`
7.27

// lookup pIC50 for `CCCCc1cn(-c2ccccc2CC)c(=O)n1Cc1ccc(-c2ccccc2-c2nnn[nH]2)nc1`
8.35

// lookup pIC50 for `CCCCc1nc(CCC)n(Cc2ccc(-c3ccccc3-c3nnn[nH]3)cc2)n1`
7.80

// lookup pIC50 for `CCCCc1nn(/C(Cc2ccccc2)=C(/OCc2ccccc2)c2ccccc2)c(=O)n1Cc1ccc(-c2ccccc2-c2nn[nH]n2)cc1`
6.32

// lookup pIC50 for `CCCCc1nc(-c2ccccc2)nn1Cc1ccc(-c2ccccc2-c2nnn[nH]2)nc1`
7.27

// lookup pIC50 for `CCCCc1cn(CC)c(=O)n1Cc1ccc(-c2ccccc2-c2nnn[nH]2)nc1`
7.47

// lookup pIC50 for `CCCCc1cn(-c2ccccc2C(C)(C)C)c(=O)n1Cc1ccc(-c2ccccc2-c2nnn[nH]2)nc1`
7.72

// lookup pIC50 for `CCCCc1nc(C(F)(F)C(F)(F)F)nn1Cc1ccc(-c2ccccc2-c2nnn[nH]2)cc1`
7.82

// lookup pIC50 for `CCCCc1nc(CCc2ccccc2)n(Cc2ccc(-c3ccccc3-c3nnn[nH]3)nc2)n1`
7.14

// lookup pIC50 for `CCCCc1cn(C23CC4CC(CC(C4)C2)C3)c(=O)n1Cc1ccc(-c2ccccc2-c2nnn[nH]2)nc1`
7.19

// lookup pIC50 for `CCCCc1cn(CC(C)C)c(=O)n1Cc1ccc(-c2ccccc2-c2nnn[nH]2)nc1`
7.85

// lookup pIC50 for `CCCCCCCCc1nc(CCCC)nn1Cc1ccc(-c2ccccc2-c2nnn[nH]2)cc1`
6.24

// lookup pIC50 for `CCCCc1nn(C/C=C/c2ccccc2)c(=O)n1Cc1ccc(-c2ccccc2-c2nn[nH]n2)cc1`
6.54

// lookup pIC50 for CCCCc1nn(C(CC(=O)OCC)C(=O)c2ccccc2)c(=O)n1Cc1ccc(-c2ccccc2-c2nn[nH]n2)cc1 (stereo not shown)
7.44

// lookup pIC50 for `CCCCc1nc(CCC(=O)O)nn1Cc1ccc(-c2ccccc2-c2nnn[nH]2)cc1`
7.21

// lookup pIC50 for `CCCCc1cn(CCC2CCCC2)c(=O)n1Cc1ccc(-c2ccccc2-c2nnn[nH]2)nc1`
7.74

// lookup pIC50 for `CCCCc1nc(CC23CC4CC(CC(C4)C2)C3)n(Cc2ccc(-c3ccccc3-c3nnn[nH]3)cc2)n1`
6.96

// lookup pIC50 for `CCCCc1nc(CCC2CCCCC2)nn1Cc1ccc(-c2ccccc2-c2nnn[nH]2)cc1`
7.72

// lookup pIC50 for `CCCCc1cn(-c2c(C)cccc2Cl)c(=O)n1Cc1ccc(-c2ccccc2-c2nnn[nH]2)nc1`
8.44

// lookup pIC50 for `CCCCc1nn(CC(=O)c2ccccc2)c(=O)n1Cc1ccc(-c2ccccc2-c2nn[nH]n2)cc1`
8.10

// lookup pIC50 for CCCCc1nn(CC(OCC(=O)O)c2ccccc2)c(=O)n1Cc1ccc(-c2ccccc2-c2nn[nH]n2)cc1 (stereo not shown)
7.52

// lookup pIC50 for CCCCn1nc(C(F)CCC)nc1Cc1ccc(-c2ccccc2-c2nnn[nH]2)nc1 (stereo not shown)
7.55

// lookup pIC50 for `CCCCc1nc(C23CC4CC(CC(C4)C2)C3)nn1Cc1ccc(-c2ccccc2-c2nnn[nH]2)cc1`
8.30

// lookup pIC50 for `CCCCc1cn(CCC)c(=O)n1Cc1ccc(-c2ccccc2-c2nnn[nH]2)nc1`
7.51

// lookup pIC50 for `CCCCn1nc(C(=O)NC(C)(C)C)nc1Cc1ccc(-c2ccccc2-c2nnn[nH]2)nc1`
7.05

* * *

Target: angiotensin II AT1 receptor
Assay: Assay A: Angiotensin II binding activity (125I-AII displacement, rat uterine membrane preparation)
MEASURED_ATTRIBUTE: log10 IC50 (log10 of the value in nM)
Response schema: value (number) is log10 of IC50 in units of nM.

// lookup log10 IC50 for CCCCc1nc(CC(C)(C)C)n(Cc2ccc(-c3ccccc3-c3nnn[nH]3)nc2)n1 [Compound 250]
1.63

// lookup log10 IC50 for CCCCc1nc(CCCN)nn1Cc1ccc(-c2ccccc2-c2nnn[nH]2)cc1 [Compound 72]
1.92

// lookup log10 IC50 for CCCCc1nn(CCCC)c(=O)n1Cc1ccc(-c2ccccc2C(=O)O)cc1 [Compound 78]
2.00

// lookup log10 IC50 for CCCCn1nc(C(F)(F)CCC)nc1Cc1ccc(-c2ccccc2-c2nnn[nH]2)cc1 [Compound 130]
1.60

// lookup log10 IC50 for CCCCc1nc(CN)nn1Cc1ccc(-c2ccccc2-c2nnn[nH]2)cc1 [Compound 27]
2.26

// lookup log10 IC50 for CCCCc1nc(CCCC)n(Cc2ccc(-c3ccncc3-c3nnn[nH]3)cc2)n1 [Compound 243]
2.40

// lookup log10 IC50 for CCCCc1nc(C)n(Cc2ccc(-c3ccccc3-c3nnn[nH]3)cc2)n1 [Compound 33]
2.80

// lookup log10 IC50 for CCCCc1nc(C(=O)CCC)nn1Cc1ccc(-c2ccccc2-c2nnn[nH]2)cc1 [Compound 31]
1.15

// lookup log10 IC50 for CCCCc1nn(CCCC)c(=O)n1Cc1ccc(-c2ccccc2-c2nnn[nH]2)cc1 [Compound 79]
0.69

// lookup log10 IC50 for CCCCc1nc(C(OC)OC)nn1Cc1ccc(-c2ccccc2-c2nnn[nH]2)cc1 [Compound 24]
1.00

// lookup log10 IC50 for CCCCc1nn(CC(=O)C23CC4CC(CC(C4)C2)C3)c(=O)n1Cc1ccc(-c2ccccc2-c2nn[nH]n2)cc1 [Compound 80]
1.40

// lookup log10 IC50 for CCCCc1cn(CCC2=CCCC2)c(=O)n1Cc1ccc(-c2ccccc2-c2nnn[nH]2)nc1 [Compound 212]
1.36

// lookup log10 IC50 for CCCCc1nc(CCc2ccccc2)nn1Cc1ccc(-c2ccccc2-c2nnn[nH]2)cc1 [Compound 26]
0.51

// lookup log10 IC50 for CCCCc1ncnn1Cc1ccc(-c2ccccc2-c2nnn[nH]2)cc1 [Compound 53]
1.81

// lookup log10 IC50 for CCCCc1nc(Cl)c(Cl)n1Cc1ccc(-n2cccc2C(=O)O)cc1 [Compound 147]
0.76

// lookup log10 IC50 for CCCCc1cn(-c2c(F)cccc2F)c(=O)n1Cc1ccc(-c2ccccc2-c2nnn[nH]2)nc1 [Compound 220]
0.85

// lookup log10 IC50 for CCCCc1cn(C(C)C)c(=O)n1Cc1ccc(-c2ccccc2-c2nnn[nH]2)nc1 [Compound 200]
1.30

* * *

Test system: pressor response to AII
Test: Assay C: In vivo intragastric pressor assay response for AII antagonists
Set-up: species or system rat
Settings: Rattus norvegicus, dose 3 mg/kg, intragastric, or intraduodenal for examples listed
Description: Assay C: In Vivo Intragastric Pressor Assay Response for AII Antagonists Male Sprague-Dawley rats weighing 225-300 grams were anesthetized with methohexital (30 mg/kg, i.p.) and catheters were implanted into the femoral artery and vein. […] Arterial pressure was recorded on a Gould polygraph (mmHg). […] The pressor response in mm Hg was measured by the differer.-:e from pre-injection arterial pressure to the maximum pressure achieved. […] The pressor response to AII was measured at each time point. […]
MEASURED_ATTRIBUTE: inhibition at 3 mg/kg (%)
Just the number please, in %, no unit attached.

// lookup inhibition at 3 mg/kg for CCCCc1cn(-c2ccccc2CC)c(=O)n1Cc1ccc(-c2ccccc2-c2nnn[nH]2)cc1 [Compound 271]
20

// lookup inhibition at 3 mg/kg for CCCCc1cn(C(C)(C)C)c(=O)n1Cc1ccc(-c2ccccc2-c2nnn[nH]2)nc1 [Compound 201]
10

// lookup inhibition at 3 mg/kg for CCCc1cn(CCC)c(=O)n1Cc1ccc(-c2ccccc2-c2nnn[nH]2)nc1 [Compound 186]
25

// lookup inhibition at 3 mg/kg for CCCCc1cn(CCc2ccccc2)c(=O)n1Cc1ccc(-c2ccccc2-c2nnn[nH]2)nc1 [Compound 210]
15

// lookup inhibition at 3 mg/kg for CCCCc1cn(-c2c(C)cc(C)cc2C)c(=O)n1Cc1ccc(-c2ccccc2-c2nnn[nH]2)cc1 [Compound 278]
50

// lookup inhibition at 3 mg/kg for CCCCc1cn(C(C)C)c(=O)n1Cc1ccc(-c2ccccc2-c2nnn[nH]2)nc1 [Compound 200]
45

// lookup inhibition at 3 mg/kg for CCCCc1cn(CCc2cccs2)c(=O)n1Cc1ccc(-c2ccccc2-c2nnn[nH]2)cc1 [Compound 134]
35

// lookup inhibition at 3 mg/kg for CCCCc1cn(CCC2=CCCC2)c(=O)n1Cc1ccc(-c2ccccc2-c2nnn[nH]2)nc1 [Compound 212]
15

// lookup inhibition at 3 mg/kg for CCCCc1cn(C2CCCCC2)c(=O)n1Cc1ccc(-c2ccccc2-c2nnn[nH]2)nc1 [Compound 205]
40

// lookup inhibition at 3 mg/kg for CCCCc1cn(CCCC)c(=O)n1Cc1ccc(-c2ccccc2-c2nnn[nH]2)nc1 [Compound 185]
50

// lookup inhibition at 3 mg/kg for CCCCc1cn(CCC(C)C)c(=O)n1Cc1ccc(-c2ccccc2-c2nnn[nH]2)nc1 [Compound 198]
35

// lookup inhibition at 3 mg/kg for CCCCc1cn(CCC2CC2)c(=O)n1Cc1ccc(-c2ccccc2-c2nnn[nH]2)nc1 [Compound 206]
30

// lookup inhibition at 3 mg/kg for CCCCn1nc(C(OCC)OCC)nc1Cc1ccc(-c2ccccc2-c2nnn[nH]2)nc1 [Compound 176]
10

// lookup inhibition at 3 mg/kg for CCCCc1cn(-c2c(C)cccc2Cl)c(=O)n1Cc1ccc(-c2ccccc2-c2nnn[nH]2)cc1 [Compound 274]
35

// lookup inhibition at 3 mg/kg for CCCCc1nc(C(=O)N(C)C(C)(C)C)n(Cc2ccc(-c3ccccc3-c3nnn[nH]3)nc2)n1 [Compound 256]
30

// lookup inhibition at 3 mg/kg for CCCCc1nc(CCCC)n(Cc2ccc(-c3ccccc3-c3nnn[nH]3)nc2)n1 [Compound 241]
40

// lookup inhibition at 3 mg/kg for CCCCc1cn(-c2c(OC)cccc2OC)c(=O)n1Cc1ccc(-c2ccccc2-c2nnn[nH]2)nc1 [Compound 230]
25

// lookup inhibition at 3 mg/kg for CCCCc1nc2c(OC(=O)C(C)C)nnc(O)c2n1Cc1ccc(-c2ccccc2-c2nnn[nH]2)cc1 [Compound 119]
20

// lookup inhibition at 3 mg/kg for CCCCc1cn(-c2c(Cl)cccc2Cl)c(=O)n1Cc1ccc(-c2ccccc2-c2nnn[nH]2)nc1 [Compound 221]
25

// lookup inhibition at 3 mg/kg for CCCCc1nc(C(F)(F)CCC)n(Cc2ccc(-c3ccccc3-c3nnn[nH]3)nc2)n1 [Compound 248]
10

// lookup inhibition at 3 mg/kg for CCCCc1cn(-c2c(C)cccc2C)c(=O)n1Cc1ccc(-c2ccccc2-c2nnn[nH]2)cc1 [Compound 275]
40

// lookup inhibition at 3 mg/kg for CCCCc1cn(-c2ccccc2C)c(=O)n1Cc1ccc(-c2ccccc2-c2nnn[nH]2)nc1 [Compound 217]
65
